- Tested on: DNA
- MEASUREMENT PROTOCOL: Epitope mapping solid phase immunoassay (ELISA)
- Type: binding
- RUN PARAMETERS: signal-to-noise (S/N) class
EXPERIMENTAL ENDPOINT: Reactivity to DNA

Record clone 1.5.13: anti-LNA monoclonal hybridoma antibody, VH SEQ ID NO: 81, VL SEQ ID NO: 89 (antibody, listed as Mus musculus, V domains shown) VH: QVQLKESGPGLVAPSQSLSITCTISGFSLTTYGVHWVRQPPGMGLEWLVVIWGDGSTTYNSALRSRLSISKDNSRSQVFLKMNSLQTDDTAMYYCARHGGRYALDYWGQGTSVTVSS VL: DIVMTQSPATLSVTPGDRVSLSCRASQSIGGYLHWYQQKSHESPRLLIKYASQSMSGIPPRFSGSGSGSDFTLSINSVAPEDVGVYYCQAGHTFPLTFGAGTKL . Reported Reactivity to DNA: − (−: S/N <2)

Record clone 1.7.15: anti-LNA monoclonal hybridoma antibody, VH SEQ ID NO: 12, VL SEQ ID NO: 21 (antibody, listed as Mus musculus, V domains shown) VH: QVQLKQSGPSFVQPSQSLSITCTVSGFSLTTYGVHWVRQSPGKGLEWLGVIWRSGGTDYNAAFMSRLSITKDNSKSQVFFKMNSLQTDDTAIYYCTNLYYWGQGTTLTVSS VL: DIVMTQATFSNPVTLGTSVSISCRSSKSLLRSNGITYLYWYLQKPGQSPQLLIYQMSNLASGVPDRFSSSGSGTDFTLRISRVEAEDVGVYYCGQNLELPYTFGSGTKVEIK . Reported Reactivity to DNA: − (−: S/N <2)

Recorded values, source patent US20260201069A1.
